Kindly supply the reported HDL binding change, positive = increase values for the records listed here.
- target: Scavenger receptor class B member 1 (Mus musculus)
- protocol: SR-BI HDL particle binding change, fluorescent HDL – cell-based, ldlA[mSR-BI] CHO, Alexa 488-HDL, powder samples, set 3, orthogonal assay for SR-BI HDL uptake inhibitor project, dose response (AID 624024)
- conditions.used: ldlA[mSR-BI] CHO cells, Alexa488-HDL binding fluorescence, 3 h; at 35 µM (top of the series)
Records with an inconclusive call do not appear.
Give bare numbers, in %.

Here is how some compounds turned out for HDL binding change, positive = increase.
compound	measured.value
Cc1ccc(OCc2cc(C(=O)N3CCCC(O)C3)no2)cn1 (stereo not given)	36
O=C(O)CC(C(=O)Nc1cccc(C(F)(F)F)c1)C1CCCO1 (stereo not given)	64.3
C=CCOC(=O)N(C)C[C@@H]1Oc2ccc(NC(=O)NC(C)C)cc2C(=O)N([C@H](C)CO[Si](C)(C)C(C)(C)C)C[C@H]1C	90.1
O=C1C2C3C=CC(C3)C2C(=O)N1c1cccc(N2C(=O)C3C4C=CC(C4)C3C2=O)n1 (stereo not given)	4.51

input: Looking for the measured HDL binding change, positive = increase of COc1ccc2c(c1)CC(C1(O)C(=O)N(C)c3ccccc31)C2=O (stereo not given) , can you help?
output: 37.2

---

- target: Scavenger receptor class B member 1 (Mus musculus) (UniProt Q61009)
- Sequence (Q61009 whole entry, looked up): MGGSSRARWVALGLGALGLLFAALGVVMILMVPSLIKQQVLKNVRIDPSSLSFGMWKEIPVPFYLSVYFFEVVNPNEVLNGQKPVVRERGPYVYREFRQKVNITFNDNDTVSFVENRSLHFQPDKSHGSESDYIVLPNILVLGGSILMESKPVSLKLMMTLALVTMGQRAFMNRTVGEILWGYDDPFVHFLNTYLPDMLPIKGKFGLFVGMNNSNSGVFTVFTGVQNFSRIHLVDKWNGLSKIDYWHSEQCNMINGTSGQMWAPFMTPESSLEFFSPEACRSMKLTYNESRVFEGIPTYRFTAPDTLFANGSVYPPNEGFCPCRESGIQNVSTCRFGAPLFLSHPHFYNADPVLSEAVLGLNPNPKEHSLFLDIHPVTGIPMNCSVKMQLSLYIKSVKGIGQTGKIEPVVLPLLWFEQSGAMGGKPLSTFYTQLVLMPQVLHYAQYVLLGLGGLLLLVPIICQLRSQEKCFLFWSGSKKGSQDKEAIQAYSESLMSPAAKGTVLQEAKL
- protocol: SR-BI HDL particle binding change, fluorescent HDL – cell-based, ldlA[mSR-BI] CHO, Alexa 488-HDL, powder samples, set 3, orthogonal assay for SR-BI HDL uptake inhibitor project, dose response (AID 624024)
- conditions.used: ldlA[mSR-BI] CHO cells, Alexa488-HDL binding fluorescence, 3 h
Records with an inconclusive call do not appear.
recorded.metric: AC40

A selection of reference data follows.
smiles.repr	target	measured.value
CC(C)NC(=O)Nc1cccc2c1O[C@@H](CN(C)S(=O)(=O)c1ccc(Cl)cc1)[C@H](C)CN([C@H](C)CO)C2=O	Scavenger receptor class B member 1 (Mus musculus) (UniProt Q61009)	544 nM
C=CCOC(=O)N(C)C[C@@H]1Oc2ccc(NC(=O)OCC3c4ccccc4-c4ccccc43)cc2C(=O)N([C@H](C)CO)C[C@H]1C	Scavenger receptor class B member 1 (Mus musculus) (UniProt Q61009)	1870 nM
CC(C)NC(=O)Nc1ccc2c(c1)C(=O)N([C@@H](C)CO)C[C@H](C)[C@H](CN(C)S(=O)(=O)c1ccc(Cl)cc1)O2	Scavenger receptor class B member 1 (Mus musculus) (UniProt Q61009)	12.1 nM
CC(C)NC(=O)Nc1ccc2c(c1)C(=O)N([C@H](C)CO)C[C@@H](C)[C@@H](CN(C)S(=O)(=O)c1ccc(Cl)cc1)O2	Scavenger receptor class B member 1 (Mus musculus) (UniProt Q61009)	3690 nM
C[C@@H]1CN([C@H](C)CO[Si](C)(C)C(C)(C)C)C(=O)c2cc(NC(=O)C3CCCCC3)ccc2O[C@H]1CN(C)C(=O)c1ccc(Cl)cc1	Scavenger receptor class B member 1 (Mus musculus) (UniProt Q61009)	6330 nM

Your task in this section: give AC40 for each listed record.
1. CNC[C@@H]1Oc2ccc(NC(=O)NC(C)C)cc2C(=O)N([C@H](C)CO[Si](C)(C)C(C)(C)C)C[C@H]1C
2. C[C@@H]1CN([C@H](C)CO)C(=O)c2cc(NC(=O)Cc3cn(C)c4ccccc34)ccc2O[C@H]1CN(C)S(=O)(=O)c1ccc(F)cc1
3. C[C@@H]1CN([C@H](C)CO)C(=O)c2cc(NC(=O)Cc3cn(C)c4ccccc34)ccc2O[C@H]1CN(C)S(=O)(=O)c1ccc(Cl)cc1
4. COc1c(NC(=O)C(=O)c2ccc(OCCN3CCOCC3)c3ccccc23)cc(C(C)(C)C)cc1NS(C)(=O)=O

output:
1. 3380 nM
2. 1.76 nM
3. 4.61 nM
4. 218 nM

Could I get AC40 for every one of these entries?
1. C=CCOC(=O)N(C)C[C@@H]1Oc2ccc(N)cc2C(=O)N([C@H](C)CO[Si](C)(C)C(C)(C)C)C[C@H]1C
2. C[C@@H]1CN([C@H](C)CO)C(=O)c2cc(NC(=O)C3CCCCC3)ccc2O[C@H]1CN(C)S(=O)(=O)c1cccc(Cl)c1

output:
3760 nM
3040 nM
